- Measured on: T1, KlIxr1 (Kluyveromyces lactis, UniProt Q6CMQ4 1-464)
- T1 sequence: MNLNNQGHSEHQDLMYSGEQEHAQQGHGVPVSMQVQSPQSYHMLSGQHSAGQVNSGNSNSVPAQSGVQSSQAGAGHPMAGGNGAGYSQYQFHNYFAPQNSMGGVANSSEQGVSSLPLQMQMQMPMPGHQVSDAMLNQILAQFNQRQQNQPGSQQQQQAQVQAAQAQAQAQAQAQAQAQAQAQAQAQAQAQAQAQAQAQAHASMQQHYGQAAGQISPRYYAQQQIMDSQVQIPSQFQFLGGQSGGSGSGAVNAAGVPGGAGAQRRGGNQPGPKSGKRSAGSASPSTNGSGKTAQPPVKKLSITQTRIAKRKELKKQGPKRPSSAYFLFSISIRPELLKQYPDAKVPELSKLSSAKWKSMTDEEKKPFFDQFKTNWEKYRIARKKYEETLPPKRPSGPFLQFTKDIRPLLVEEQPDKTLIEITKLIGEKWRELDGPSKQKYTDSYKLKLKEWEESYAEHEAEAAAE
- Procedure text: fluorescence anisotropy; 100 nM DNA; FA: 10 mM Tris-HCl pH 8.0, 100 mM KCl, 2 mM DTT, 1 mM EDTA, 500 ug/mL BSA, 25 C, 100 nM DNA; EMSA: 4 C 30 min, 500 nM DNA, 1 ug protein, 1 ug calf thymus DNA, buffer by reference
- Condition: protein: recombinant; tags: N-terminal 6xHis; label: 5'-FAM on forward strand (AJVV029f*); blunt

Binder	Unit label	Kd
KlYCF1 promoter (dsDNA) DNA 1: TTAATTGCAATTGTTACTGTTGATTTTAAA DNA 2: TTTAAAATCAACAGTAACAATTGCAATTAA	nM	105
